Test system: NCI-H23 lung
METHOD SUMMARY: NCI-60 one-dose screen, 48 h (100 = growth as untreated, 0 = no growth, -100 = all killed)
RUN PARAMETERS: 10 µM unless noted
This is part of a sample that, as a whole, favours compounds with a hit. Of some 83,000 tested, about 20% had one in any assay.
Hi! Could you tag entries with growth below 60% as TRUE, and those at or above as FALSE? Much appreciated.

Cn1cc2c(c1)-c1nc(Nc3ccccc3)ncc1CC2
TRUE

Could you please tell me whether growth recorded for Cc1cc(C)c2c(-c3nnc(N)s3)cc(=O)oc2c1 is less than 60%?
FALSE

Item CCCCn1c(=O)c2c(nc(NCCc3ccc(O)c(O)c3)n2CCC)n(CCCC)c1=O : growth beneath 60%, strictly?
FALSE
